- systemTested: recombinant human cIAP1-BIR3 protein (Homo sapiens)
- Construct: recombinant human cIAP1-BIR3 protein; purchased Reaction biology APT-11-370
- Sequence (Q13490 253-363 limits assumed): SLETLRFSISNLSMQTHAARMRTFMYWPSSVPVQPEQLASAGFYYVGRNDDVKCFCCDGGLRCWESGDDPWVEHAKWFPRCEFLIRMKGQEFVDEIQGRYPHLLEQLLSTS
- methodDescription: Recombinant human c-IAP1-BIR3 biochemical assay (HTRF, peptide displacement)
- runConditions: 1.2 nM cIAP1-BIR3, 3 nM AbuRPF-K(5-Fam)-NH2 peptide, read-out: Protein binding IC50 (nM) c-IAP1
measureName: IC50 (nM)

# structureSmiles, measureName, measurement
measured = [
    ("C[C@@H]1CN(CC(=O)N2c3cc(Cc4ccc(F)cc4)c(C(=O)NCC4CC4)nc3OC[C@@H]2C)[C@@H](CN2[C@H](C)COC[C@H]2C)CN1", "IC50", 0.16),
    ("C[C@@H]1CN(CC(=O)N2c3cc(Cc4ccc(F)cc4)c(C(=O)NCCN(C)C)nc3OC[C@@H]2C)[C@@H](CN2[C@H](C)COC[C@H]2C)CN1", "IC50", 0.27),
    ("C[C@@H]1CN(CC(=O)N2c3cc(Cc4ccc(F)cc4)c(OCCN4CCOCC4)nc3OC[C@@H]2C)[C@@H](CN2[C@H](C)COC[C@H]2C)CN1", "IC50", 0.22),
]

---

- systemTested: recombinant human cIAP2-BIR3 protein (Homo sapiens, UniProt Q13489)
- Construct: recombinant human cIAP2-BIR3 protein; purchased Reaction biology APT-11-372
- Sequence (Q13489 238-349 limits assumed): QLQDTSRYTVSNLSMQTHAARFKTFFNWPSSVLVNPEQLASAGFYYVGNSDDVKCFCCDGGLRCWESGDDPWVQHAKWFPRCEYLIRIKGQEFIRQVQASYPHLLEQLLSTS
- methodDescription: Recombinant human c-IAP2-BIR3 biochemical assay (HTRF, peptide displacement)
- runConditions: 3.7 nM cIAP2-BIR3, 3.7 nM AbuRPF-K(5-Fam)-NH2 peptide, read-out: Protein binding IC50 (nM) c-IAP2
measureName: IC50 (nM)

The following compounds have reported results that may help.
# compound, unitTag, IC50
data = [
    ("C[C@@H]1CN(CC(=O)N2c3cc(Cc4ccc(F)cc4)c(OCCN4CCOCC4)nc3OC[C@@H]2C)[C@@H](CN2[C@H](C)COC[C@H]2C)CN1 [Compound 90]", "nM", 0.34),
    ("COC[C@H]1COc2nc(CO)c(Cc3ccc(F)cc3)cc2N1C(=O)CN1C[C@@H](C)NC[C@@H]1CN1CCOC[C@H]1C [Compound 57]", "nM", 1.9),
    ("COCCC(=O)Nc1nc2c(cc1Cc1ccc(F)cc1)N(C(=O)CN1C[C@@H](C)NC[C@@H]1CN1[C@H](C)COC[C@H]1C)[C@@H](C)CO2 [Compound 121]", "nM", 0.27),
    ("CC(=O)Nc1nc2c(cc1Cc1ccc(F)cc1)N(C(=O)CN1C[C@@H](C)NC[C@@H]1CN1[C@H](C)COC[C@H]1C)[C@@H](C)CO2 [Compound 116]", "nM", 0.24),
    ("C[C@@H]1CN(CC(=O)N2c3cc(Cc4ccc(F)cc4)c(CN4CC(O)C4)nc3OC[C@@H]2C)[C@@H](CN2[C@H](C)COC[C@H]2C)CN1 [Compound 114]", "nM", 0.36),
]

1: COC[C@H]1COc2nc(CO)c(Cc3ccc(F)cc3)cc2N1C(=O)CN1C[C@@H](C)NC[C@@H]1CN1[C@H](C)COC[C@H]1C [Compound 58]
2: C[C@@H]1CN(CC(=O)N2c3cc(Cc4ccc(F)cc4)c(NC(=O)C4CC4)nc3OC[C@@H]2C)[C@@H](CN2[C@H](C)COC[C@H]2C)CN1 [Compound 119]
3: C[C@@H]1CN(CC(=O)N2CCOc3nc(O)c(Cc4ccc(F)cc4)cc32)[C@@H](CN2CCOC[C@H]2C)CN1 [Compound 9]
4: CC(C)OC[C@@H]1COCCN1C[C@H]1CN[C@H](C)CN1CC(=O)N1c2cc(Cc3ccc(F)cc3)c(C(N)=O)nc2OC[C@@H]1C [Example 62]
5: C[C@@H]1CN(CC(=O)N2CCOc3ncc(Cc4ccc(F)cc4)cc32)[C@@H](CN2C(=O)OC[C@H]2C(F)F)CN1 [Compound 15]
Form: Sort by [IC50] Order [ ascending ] Response field: labels, in requested order. 1, 2, 4, 3, 5
(1: 0.17 nM, 2: 0.35 nM, 4: 0.73 nM, 3: 1.3 nM, 5: 6.9 nM)

1: C[C@@H]1CN(CC(=O)N2c3cc(Cc4ccc(F)cc4)c(C(=O)N[C@H]4CCOC4)nc3OC[C@@H]2C)[C@@H](CN2[C@H](C)COC[C@H]2C)CN1 [Example 79]
2: CC(C)[C@H]1COc2ncc(Cc3ccc(F)cc3)cc2N1C(=O)CN1C[C@@H](C)NC[C@@H]1CN1CCOC[C@H]1C [Compound 47]
From the recorded data, which exceeds the other in IC50: 1 or 2 ? Could you answer with the label of the item you picked? 2

---

- systemTested: recombinant human cIAP2-BIR3 protein (Homo sapiens, UniProt Q13489)
- Construct: recombinant human cIAP2-BIR3 protein; purchased Reaction biology APT-11-372
- methodDescription: Recombinant human c-IAP2-BIR3 biochemical assay (HTRF, peptide displacement)
- runConditions: 3.7 nM cIAP2-BIR3, 3.7 nM AbuRPF-K(5-Fam)-NH2 peptide, read-out: Protein binding IC50 (nM) c-IAP2
Structures can show the parent of a compound that is named as a salt.
measureName: IC50 (nM)

Before answering, review these 5 worked examples.
# compound, measurement
data = [
    ("C[C@@H]1CN(CC(=O)N2CCOc3nc(Br)c(Cc4ccc(F)cc4)cc32)[C@@H](CN2CCOC[C@H]2C)CN1 [Compound 4]", 0.92),
    ("C[C@@H]1CN(CC(=O)N2CCOc3ncc(Cc4ccc(F)cc4)cc32)[C@@H](CN2[C@H](C)COC[C@H]2C)CN1 [Compound 16]", 0.85),
    ("CCC(=O)Nc1nc2c(cc1Cc1ccc(F)cc1)N(C(=O)CN1C[C@@H](C)NC[C@@H]1CN1[C@H](C)COC[C@H]1C)[C@@H](C)CO2 [Compound 117]", 0.23),
    ("CC1CN(C(=O)CN2C[C@@H](C)NC[C@@H]2CN2CCOC[C@H]2C)c2cc(Cc3ccc(F)cc3)c(Br)nc2O1 (stereo partly shown) [Compound 11]", 17),
    ("CCOc1nc2c(cc1Cc1ccc(F)cc1)N(C(=O)CN1C[C@@H](C)NC[C@@H]1CN1[C@H](C)COC[C@H]1C)[C@@H](C)CO2 [Compound 87]", 0.23),
]

A: CC[C@H]1COc2ncc(Cc3ccc(F)cc3)cc2N1C(=O)CN1C[C@@H](C)NC[C@@H]1CN1CCOC[C@H]1C [Compound 28]
B: C[C@@H]1CN(CC(=O)N2c3cc(Cc4ccc(F)cc4)c(O)nc3OC[C@@H]2C)[C@@H](CN2[C@H](C)COC[C@H]2C)CN1 [Example 81]
Kindly identify the item with the lower IC50 figure among these two: A and B Refer to your chosen item by its label in the answer. B

P: C[C@@H]1CN(CC(=O)N2c3cc(Cc4ccc(F)cc4)c(NCCO)nc3OC[C@@H]2C)[C@@H](CN2[C@H](C)COC[C@H]2C)CN1 [Compound 109]
Q: CCOC[C@H]1COc2ncc(Cc3ccc(F)cc3)cc2N1C(=O)CN1C[C@@H](C)NC[C@@H]1CN1CCOC[C@H]1C [Compound 37]
Quick check, higher IC50 between P and Q ? Label of pick, please. Q
(Q: 0.66 nM, P: 0.45 nM)

a: C[C@@H]1CN(CC(=O)N2c3cc(Cc4ccc(F)cc4)c(CO)nc3OC[C@@H]2C)[C@@H](CN2CCOCC2(C)C)CN1 [Compound 48]
b: C[C@@H]1CN(CC(=O)N2CCOc3nc(C4(O)CC4)c(Cc4ccc(F)cc4)cc32)[C@@H](CN2CCOC[C@H]2C)CN1 [Compound 21]
// which entry reports the smaller IC50, a or b ? Identify your pick by its label. a

1: C[C@@H]1CN(CC(=O)N2c3cc(Cc4ccc(F)cc4)c(C(=O)NCC4CCOCC4)nc3OC[C@@H]2C)[C@@H](CN2[C@H](C)COC[C@H]2C)CN1 [Example 77]
2: C[C@@H]1CN(CC(=O)N2c3cc(Cc4ccc(F)cc4)cnc3OC[C@@H]2COc2ccccc2)[C@@H](CN2[C@H](C)COC[C@H]2C)CN1 [Compound 40]
Could you point out whether the larger IC50 belongs to 1 or to 2 ? Reply briefly: the label of your chosen item. 1
(1: 0.28 nM, 2: 0.14 nM)

P: C[C@@H]1CN(CC(=O)N2c3cc(Cc4ccc(F)cc4)c(C(=O)NC4CC4)nc3OC[C@@H]2C)[C@@H](CN2[C@H](C)COC[C@H]2C)CN1 [Example 63]
Q: COC[C@H]1COc2ncc(Cc3ccc(F)cc3)cc2N1C(=O)CN1C[C@@H](C)NC[C@@H]1CN1CCOC[C@H]1C [Compound 35]
R: C[C@@H]1CN(CC(=O)N2CCOc3ncc(Cc4ccc(F)cc4)cc32)[C@@H](CN2C[C@H]3C[C@@H]2CO3)CN1 [Compound 14]
Rank entries according to their IC50, from the largest number down. Dear reader, please state the labels in the requested order. R, Q, P

1: C[C@@H]1CN(CC(=O)N2c3cc(Cc4ccc(F)cc4)c(C(=O)NC(C)(C)C)nc3OC[C@@H]2C)[C@@H](CN2[C@H](C)COC[C@H]2C)CN1 [Compound 120]
2: C[C@@H]1CN(CC(=O)N2c3cc(Cc4ccc(F)cc4)cnc3OC[C@@H]2C2CCCCC2)[C@@H](CN2[C@H](C)COC[C@H]2C)CN1 [Compound 43]
3: C[C@@H]1CN(CC(=O)N2CCOc3ncc(Cc4ccc(F)cc4)cc32)[C@@H](CN2C[C@@H]3C[C@H]2CO3)CN1 [Compound 13]
Parameters: sort_field (IC50), sort_dir (desc). Answer by writing out the labels in the requested order. 3, 1, 2
(3: 1.5 nM, 1: 0.39 nM, 2: 0.27 nM)

A: C[C@@H]1CN(CC(=O)N2c3cc(Cc4ccc(F)cc4)c(CN4CCOCC4)nc3OC[C@@H]2C)[C@@H](CN2[C@H](C)COC[C@H]2C)CN1 [Compound 92]
B: CCOc1nc2c(cc1Cc1ccc(F)cc1)N(C(=O)CN1C[C@@H](C)NC[C@@H]1CN1CCOC[C@H]1C)CCO2 [Compound 17]
Please choose the item with the lower IC50 value from this pair: A and B Identify your selection by its label. A

I: C[C@@H]1CN(CC(=O)N2c3cc(Cc4ccc(F)cc4)c(C(=O)NCCN(C)C)nc3OC[C@@H]2C)[C@@H](CN2[C@H](C)COC[C@H]2C)CN1 [Compound 97]
II: C[C@@H]1CN(CC(=O)N2c3cc(Cc4ccc(F)cc4)c(CO)nc3OC[C@@H]2C)[C@@H](CN2CCOCC23CCC3)CN1 [Compound 56]
// which entry reports the smaller IC50, I or II ? Return value: the label identifying the chosen record. I
(I: 0.51 nM, II: 2.2 nM)

I: C[C@@H]1CN(CC(=O)N2c3cc(Cc4ccc(F)cc4)c(-c4ccc(F)cc4)nc3OC[C@@H]2C)[C@@H](CN2[C@H](C)COC[C@H]2C)CN1 [Compound 113]
II: C[C@@H]1CN(CC(=O)N2c3cc(Cc4ccc(F)cc4)cnc3OCC23CC3)[C@@H](CN2CCOC[C@H]2C)CN1 [Compound 20, hydrochloride]
Given the listed items, does I or II have the lesser reported IC50? Record your answer as the label of the chosen record. I
(I: 0.36 nM, II: 25 nM)
